# SYSTEM_UNDER_TEST: H5 hemagglutinin of influenza A/Indonesia/5/05 (H5N1) (influenza A virus H5N1 A/Indonesia/5/05)
# METHOD_NOTES: cell-based or functional assay
VALUE_KIND: Minimum inhibitory concentrations required to neutralize virus (µg/mL)
Answers are plain numbers, in µg/mL.

As a guide, the following entries are already answered.
- Antibody 3 (antibody, V domains shown) V domain 1: EVQLVQSGAEVKKPGSSVKVSCKTSGGTFSSYAVTWVRQAPGQGLEWMGAIIGMFGTTNYAQKFQGRVTITADELTSTAYMELSSLRSDDTAVYYCARGSYYYESSLDYWGKGTL V domain 2: QSVLTQPPSVSGAPGQRVTISCGGSRSNIGAGYDVHWYQQFPGTAPKVVIYGNNNRPSGVPDRFSGSKSGTSASLAITGLQAEDEANYYCQSYDTNLGGSIFGGGTQVTVL: 16
- Antibody 2 (antibody, V domains shown) VH: QVQLVQSGAEVKKPGSSVKVSCKTSGGTFSSYAVTWVRQAPGQGLEWMGGIIGMFGTTNYAQKFQGRVTITADELTSTAYMELSSLRSEDTAVYYCARGSYYYESSLDYWGRGTL VL: ETTLTQSPATLSVSPGERATLSCRASQSVSRNLAWYQQKPGQAPRLLIYGASSRATGIPDRFSGSGSGTDFTLTISRLEPEDFAVYYCQQYGSSSITFGQGTRLEIKR: 27

--- query ---
Request: Quick check: Minimum inhibitory concentrations required to neutralize virus of Antibody 1 (antibody, V domains shown) VH: QVQLVQSGAEVKKPGSSVRVSCKTSGGTFSSYAVTWVRQAPGQGLEWMGGIIGMFGTTNYAQKFQGRLTITADEMTSTAYMELSSLRSEDTAVYYCARGSYYYETTLDYWGRGTL VL: ETTLTQSPGTLSLSPGERATLSCRVSQSVSSNYLAWYQQKPGQAPRLLIYGASSRATGIPDRFSGSGSGTDFTLTISRLEPEDFAVYYCQQYGTSPRAFGHGTKVEIKR ?
Result: 9.3

All figures here come from patent US20100040635A1.
